assay: Particle size and PDI of nucleic acid lipid nanoparticle preparations by dynamic light scattering; type: physicochemical; conditions: Fluc-circ-RNA LNP, preparation given IV
RECORDED ENDPOINT: PDI
Numbers only.

Hi, could you look up PDI for each item in my list?
1. [2H]C([2H])([2H])[N+](CCCN(CC(O)C(=O)NCCCCCCCCCCCC)CC(O)C(=O)NCCCCCCCCCCCC)(CCCN(CC(O)C(=O)NCCCCCCCCCCCC)CC(O)C(=O)NCCCCCCCCCCCC)C([2H])([2H])[2H] (centres unmarked)
2. CCCCCCCCCCCCOC(=O)C(O)CN(CCN(C)CCN(CC(O)C(=O)OCCCCCCCCCCCC)CC(O)C(=O)OCCCCCCCCCCCC)CC(O)C(=O)OCCCCCCCCCCCC (centres unmarked)
3. CCCCCCCCCCCOC(=O)CCCCCN(CCO)CCCCCCCC(=O)OC(CCCCCCCC)CCCCCCCC [SM-102, reference compound]
4. CCCCCCCCCCCCNC(=O)C(O)CN(CCCN(CCO)CCCN(CC(O)C(=O)NCCCCCCCCCCCC)CC(O)C(=O)NCCCCCCCCCCCC)CC(O)C(=O)NCCCCCCCCCCCC (centres unmarked)
5. CCCCCCCCCCOC(=O)C(O)CN(CCCN(C)CCCN(CC(O)C(=O)OCCCCCCCCCC)CC(O)C(=O)OCCCCCCCCCC)CC(O)C(=O)OCCCCCCCCCC (centres unmarked)

1: 0.24; 2: 0.16; 3: 0.19; 4: 0.19; 5: 0.2

###

Field: PDI. Provide a value for each of the compounds that follow.
assay: Particle size and PDI of nucleic acid lipid nanoparticle preparations by dynamic light scattering; assay type: physicochemical; settings: DMG-PEG2000:DSPC:Chol:compound 1.40:11.15:38.95:48.50, N/P 20
Give bare numbers.

CCCCCCCCCCCCOC(=O)C(O)CN(CCOCCOCCN(CC(O)C(=O)OCCCCCCCCCCCC)CC(O)C(=O)OCCCCCCCCCCCC)CC(O)C(=O)OCCCCCCCCCCCC (stereo not drawn) | 0.11
CCCCCCCCCCOC(=O)C(O)CN(CCOCCOCCN(CC(O)C(=O)OCCCCCCCCCC)CC(O)C(=O)OCCCCCCCCCC)CC(O)C(=O)OCCCCCCCCCC (stereo not drawn) | 0.47
CCCCCCOC(C)OCCCCCCOC(=O)C(O)CN(C)CCN(C)CCN(C)CC(O)C(=O)OCCCCCCOC(C)OCCCCCC (stereo not drawn) | 0.13
CCCCCCCCCCNC(=O)C(O)CN(CCCCCCCN(CC(O)C(=O)NCCCCCCCCCC)CC(O)C(=O)NCCCCCCCCCC)CC(O)C(=O)NCCCCCCCCCC (stereo not drawn) | 0.14

Hi, could you look up PDI for each item in my list?
1. CCCCCCCCCCOC(=O)C(O)CN(CCCCCN(CC(O)C(=O)OCCCCCCCCCC)CC(O)C(=O)OCCCCCCCCCC)CC(O)C(=O)OCCCCCCCCCC (stereo not drawn)
2. CCCCCCCCCCOC(=O)C(O)CN(CCOCCN(CC(O)C(=O)OCCCCCCCCCC)CC(O)C(=O)OCCCCCCCCCC)CC(O)C(=O)OCCCCCCCCCC (stereo not drawn)

[0.25, 0.26]

###

Field: IVIS. Provide a value for each of the compounds that follow.
tested on: mice; experiment: In vivo delivery of FLuc-mRNA lipid nanoparticles in mice, in vivo imaging (IVIS); details: IV, spleen; DMG-PEG2000:DSPC:Chol:compound 1.40:11.15:38.95:48.50, N/P 20; Fluc-mRNA
Give bare numbers.

// worked examples, IVIS included
CCCCCCOCOCCCCCCOC(=O)C(O)CN(CCOCCOCCN(CC(O)C(=O)OCCCCCCOCOCCCCCC)CC(O)C(=O)OCCCCCCOCOCCCCCC)CC(O)C(=O)OCCCCCCOCOCCCCCC (centres unmarked) | 1.44E+06
CCCCCCCCCCNC(=O)C(O)CN(CCCCCCCN(CC(O)C(=O)NCCCCCCCCCC)CC(O)C(=O)NCCCCCCCCCC)CC(O)C(=O)NCCCCCCCCCC (centres unmarked) | 9.53E+05
CCCCCCCCCCCCOC(=O)C(O)CN(CCOCCOCCN(CC(O)C(=O)OCCCCCCCCCCCC)CC(O)C(=O)OCCCCCCCCCCCC)CC(O)C(=O)OCCCCCCCCCCCC (centres unmarked) | 1.91E+06
CCCCCCOCOCCCCCCOC(=O)C(O)CN(CCOCCN(CC(O)C(=O)OCCCCCCOCOCCCCCC)CC(O)C(=O)OCCCCCCOCOCCCCCC)CC(O)C(=O)OCCCCCCOCOCCCCCC (centres unmarked) | 6.43E+05

Okay, next one:
Provide measured IVIS value, entry: CCCCCCCCCCCCNC(=O)C(O)CN(CCOCCOCCN(CC(O)C(=O)NCCCCCCCCCCCC)CC(O)C(=O)NCCCCCCCCCCCC)CC(O)C(=O)NCCCCCCCCCCCC (centres unmarked)
3.84E+06

###

assay: Particle size and PDI of nucleic acid lipid nanoparticle preparations by dynamic light scattering; type: physicochemical; details: Fluc-circ-RNA LNP, preparation given IV
Field 'label' (enum: t / f). Set to t when Particle size (nm) is strictly under 100 nm; else f.

[2H]C([2H])([2H])[N+](CCCN(CC(O)C(=O)NCCCCCCCCCCCC)CC(O)C(=O)NCCCCCCCCCCCC)(CCCN(CC(O)C(=O)NCCCCCCCCCCCC)CC(O)C(=O)NCCCCCCCCCCCC)C([2H])([2H])[2H] (centres unmarked) | f
CCCCCCCCCCCOC(=O)CCCCCN(CCO)CCCCCCCC(=O)OC(CCCCCCCC)CCCCCCCC [SM-102, reference compound] | t
CCCCCCCCCCCCNC(=O)C(O)CN(CCCN(CCO)CCCN(CC(O)C(=O)NCCCCCCCCCCCC)CC(O)C(=O)NCCCCCCCCCCCC)CC(O)C(=O)NCCCCCCCCCCCC (centres unmarked) | f
CCCCCCCCCCCCOC(=O)C(O)CN(CCN(C)CCN(CC(O)C(=O)OCCCCCCCCCCCC)CC(O)C(=O)OCCCCCCCCCCCC)CC(O)C(=O)OCCCCCCCCCCCC (centres unmarked) | f

Turning now to a further record.
Here's an entry: CCCCCCCCCCOC(=O)C(O)CN(CCCN(C)CCCN(CC(O)C(=O)OCCCCCCCCCC)CC(O)C(=O)OCCCCCCCCCC)CC(O)C(=O)OCCCCCCCCCC (centres unmarked) . Is its Particle size (nm) below 100 nm?
f

###

system: mice; test: In vivo delivery of FLuc-mRNA lipid nanoparticles in mice, in vivo imaging (IVIS); conditions: Fluc-mRNA LNP; route IV; organ: spleen; formulation, molar ratio and N/P as in the table
Field: IVIS. Provide a value for each of the molecules that follow.
Answers are plain numbers.

CCCCCCCCCCCCNC(=O)C(CN(CCCN(C)CCCN(CC(OC(C)=O)C(=O)NCCCCCCCCCCCC)CC(OC(C)=O)C(=O)NCCCCCCCCCCCC)CC(OC(C)=O)C(=O)NCCCCCCCCCCCC)OC(C)=O (centres unmarked) | 8.08E+07

Provide measured IVIS value, entry: CCCCCCCCCCN(C)C(=O)C(O)CN(CCCN(CC(O)C(=O)N(C)CCCCCCCCCC)CC(O)C(=O)N(C)CCCCCCCCCC)CCCN(CC(O)C(=O)N(C)CCCCCCCCCC)CC(O)C(=O)N(C)CCCCCCCCCC (centres unmarked)
7.33E+07

###

experiment: Particle size and PDI of nucleic acid lipid nanoparticle preparations by dynamic light scattering; assay type: physicochemical; details: DMG-PEG2000:DSPC:Chol:compound 1.40:11.15:38.95:48.50, N/P 30
RECORDED ENDPOINT: PDI
Numbers only.

// worked examples, PDI included
CCCCCCOCOCCCCCCOC(=O)C(O)CN(C)CCCN(C)CCCN(C)CC(O)C(=O)OCCCCCCOCOCCCCCC (stereo not shown) | 0.06
CCCCCCC(CCCCCC)C(=O)OCCCCCCOC(=O)C(O)CN(CCN(C)CCN(CC(O)C(=O)OCCCCCCOC(=O)C(CCCCCC)CCCCCC)CC(O)C(=O)OCCCCCCOC(=O)C(CCCCCC)CCCCCC)CC(O)C(=O)OCCCCCCOC(=O)C(CCCCCC)CCCCCC (stereo not shown) | 0.13
CCCCCCOC(C)OCCCCCCOC(=O)C(O)CN(CCCN(CC(O)C(=O)OCCCCCCOC(C)OCCCCCC)CC(O)C(=O)OCCCCCCOC(C)OCCCCCC)CCCN(CC(O)C(=O)OCCCCCCOC(C)OCCCCCC)CC(O)C(=O)OCCCCCCOC(C)OCCCCCC (stereo not shown) | 0.12
CCCCCCCCC(CCCCCC)C(=O)OCCCCCCOC(=O)C(O)CN(C)CCN(C)CCN(C)CC(O)C(=O)OCCCCCCOC(=O)C(CCCCCC)CCCCCCCC (stereo not shown) | 0.22
CCCCCCOC(C)OCCCCCCOC(=O)C(O)CN(CCN(C)CCN(CC(O)C(=O)OCCCCCCOC(C)OCCCCCC)CC(O)C(=O)OCCCCCCOC(C)OCCCCCC)CC(O)C(=O)OCCCCCCOC(C)OCCCCCC (stereo not shown) | 0.09

Hi, could you look up PDI for each item in my list?
1. CCCCCCC(CCCCCC)C(=O)OCCCCOC(=O)C(O)CN(CCN(C)CCN(CC(O)C(=O)OCCCCOC(=O)C(CCCCCC)CCCCCC)CC(O)C(=O)OCCCCOC(=O)C(CCCCCC)CCCCCC)CC(O)C(=O)OCCCCOC(=O)C(CCCCCC)CCCCCC (stereo not shown)
2. CCCCCCCCCCNC(=O)C(O)CN(CCCN(CCCN(CC(O)C(=O)NCCCCCCCCCC)CC(O)C(=O)NCCCCCCCCCC)C(CO)CO)CC(O)C(=O)NCCCCCCCCCC (stereo not shown)
3. CCCCCCCCCCOC(=O)C(O)CN(CCN(C)CCN(CC(O)C(=O)OCCCCCCCCCC)CC(O)C(=O)OCCCCCCCCCC)CC(O)C(=O)OCCCCCCCCCC (stereo not shown)
4. CCCCCCCC/C=C\CCCCCCCCNC(=O)C(O)CN(CCCN(C)CCCN(CC(O)C(=O)NCCCCCCCC/C=C\CCCCCCCC)CC(O)C(=O)NCCCCCCCC/C=C\CCCCCCCC)CC(O)C(=O)NCCCCCCCC/C=C\CCCCCCCC (stereo not shown)

[0.13, 0.18, 0.2, 0.15]

Hi, could you look up PDI for each item in my list?
1. CCCCCCCCCCNC(=O)C(O)CN(C)CCCN(C)CCCN(C)CC(O)C(=O)NCCCCCCCCCC (stereo not shown)
2. CCCCCCCCCCCCNC(=O)C(O)CN(C)CCCN(C)CCCN(C)CC(O)C(=O)NCCCCCCCCCCCC (stereo not shown)
3. CCCCCCC(CCCCCC)C(=O)OCCCCCCOC(=O)C(O)CN(C)CCN(C)CCN(C)CC(O)C(=O)OCCCCCCOC(=O)C(CCCCCC)CCCCCC (stereo not shown)
4. CCCCCCCCCCCCNCC(O)CN(CCCCCN(C)CCCCCN(CC(O)CNCCCCCCCCCCCC)CC(O)C(=O)NCCCCCCCCCCCC)CC(O)C(=O)NCCCCCCCCCCCC (stereo not shown)
5. CCCCCCCCC(CCCCCC)C(=O)OCCCCOC(=O)C(O)CN(CCN(C)CCN(CC(O)C(=O)OCCCCOC(=O)C(CCCCCC)CCCCCCCC)CC(O)C(=O)OCCCCOC(=O)C(CCCCCC)CCCCCCCC)CC(O)C(=O)OCCCCOC(=O)C(CCCCCC)CCCCCCCC (stereo not shown)
6. CCCCCCCC/C=C\CCCCCCCCNC(=O)C(O)CN(CCN(C)CCN(CC(O)C(=O)NCCCCCCCC/C=C\CCCCCCCC)CC(O)C(=O)NCCCCCCCC/C=C\CCCCCCCC)CC(O)C(=O)NCCCCCCCC/C=C\CCCCCCCC (stereo not shown)
7. CC/C=C\CCOCOCCCCCCOC(=O)C(O)CN(CCN(C)CCN(CC(O)C(=O)OCCCCCCOCOCC/C=C\CC)CC(O)C(=O)OCCCCCCOCOCC/C=C\CC)CC(O)C(=O)OCCCCCCOCOCC/C=C\CC (stereo not shown)

1. 0.18
2. 0.16
3. 0.17
4. 0.10
5. 0.11
6. 0.16
7. 0.06
